Biological target: UniProt:P00784
Sequence (whole entry): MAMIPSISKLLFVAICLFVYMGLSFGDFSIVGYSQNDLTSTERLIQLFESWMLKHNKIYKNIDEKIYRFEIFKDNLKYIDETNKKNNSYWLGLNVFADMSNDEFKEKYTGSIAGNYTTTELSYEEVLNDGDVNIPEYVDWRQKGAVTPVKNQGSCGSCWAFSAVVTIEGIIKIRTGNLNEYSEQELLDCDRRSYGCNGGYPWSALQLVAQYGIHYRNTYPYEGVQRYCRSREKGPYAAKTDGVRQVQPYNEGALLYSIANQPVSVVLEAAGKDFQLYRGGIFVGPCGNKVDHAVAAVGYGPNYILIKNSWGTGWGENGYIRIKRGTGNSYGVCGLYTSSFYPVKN
Assay: Kinetic constant First order rate of inactivation (K3) for the inhibition of papain conducted in 0.1 M phosphate, pH 6.8, at 30 degree C
# k3 per entry
Give the number; s⁻¹ is assumed, so skip it.

- compound: "CC(C)CCNC(=O)[C@H](CC(C)C)NC(=O)[C@H]1O[C@@H]1C(=O)NO"
  k3 / s⁻¹: 0.67

Could you share which k3 value was measured for CCOC(=O)[C@H]1O[C@@H]1C(=O)N[C@@H](CC(C)C)C(=O)NCCC(C)C [ALOXISTATIN] ?
0.059

Could you share which k3 value was measured for CC(C)CCNC(=O)[C@H](CC(C)C)NC(=O)[C@H]1O[C@@H]1C(=O)O [E-64C] ?
0.71

Could you share which k3 value was measured for CC(=O)[C@H]1O[C@@H]1C(=O)N[C@@H](CC(C)C)C(=O)NCCC(C)C ?
0.47

Could you share which k3 value was measured for CC(C)CCNC(=O)[C@H](CC(C)C)NC(=O)[C@H]1O[C@@H]1C(N)=O ?
0.35

Could you share which k3 value was measured for CC(C)CCNC(=O)[C@H](CC(C)C)NC(=O)[C@H]1O[C@@H]1CO ?
0.019
